- Test system: pigweed (Amaranthus retroflexus)
- measurement notes: Test B pre-/postemergence
- Format: in vivo
- experimental setup: Rate 125 g/ha, Preemergence
Provide the recorded Redroot pigweed plant response rating for the entries that follow.
Answers are plain numbers.

Some solved cases for reference:
Cc1cnc(-c2ccc(F)cc2F)nc1Cc1cccc(C(F)(F)F)c1: 2
Cc1cnc(-c2ccc(C(F)(F)F)cc2)nc1Cn1cc(I)cn1: 9
Cc1cnc(-n2ccc(C(F)(F)F)n2)nc1Cc1cccc(OC(F)(F)F)c1: 10

Next, consider the following molecule.
Inquiry: Which Redroot pigweed plant response rating is reported for this molecule? Cc1cnc(-c2ccc(C(F)(F)F)cc2)nc1C(C#N)c1cccc(C(F)(F)F)c1 (racemic)
Reply text: 9

---

- Tested on: crabgrass (Digitaria sanguinalis)
- measurement notes: Test B pre-/postemergence
- Type: in vivo
- Parameters: key: 0 is no effect; 10 is complete control
- experimental setup: Rate 62 g/ha, Preemergence
Provide the recorded Crabgrass plant response rating for the entries that follow.
One number for each entry.

Below are 5 molecules. Give each one its Crabgrass plant response rating.
1. Cc1cnc(-c2ccc(C(F)(F)F)cc2)nc1Cn1ccc(C(F)(F)C(F)(F)F)n1 [Compound 14]
2. COc1cnc(-n2ccc(C(F)(F)F)n2)nc1Cc1cccc(C(F)(F)F)c1 [Compound 45]
3. Cc1cnc(-c2ccc(C(F)(F)F)cc2)nc1Cn1cc(I)cn1 [Compound 12]
4. CCc1cnc(-n2ccc(C(F)(F)F)n2)nc1Cc1cccc(OC(F)(F)F)c1 [Compound 47]
5. Cc1cnc(-c2ccc(F)cc2F)nc1Cc1cccc(C#N)c1 [Compound 34]

Reply text:
[0, 0, 4, 8, 0]

---

- System: duck salad (Heteranthera limosa)
- measurement notes: Test B flood test
- Format: in vivo
- experimental setup: Rate 250 g/ha, Postemergence (flood test species)
property: Plant response rating, Ducksalad
Give bare numbers.

Some solved cases for reference:
Cc1cnc(-c2ccc(C(F)(F)F)cc2)nc1Cn1cnc(C(F)(F)F)c1: 3
O=C(c1cccc(C(F)(F)F)c1)c1ccnc(-c2ccc(C(F)(F)F)cc2)n1: 0
Cc1cnc(-n2ccc(C(F)(F)C(F)(F)F)n2)nc1C(=O)c1cccc(OC(F)(F)F)c1: 0
Cc1cnc(-c2ccc(C(F)(F)F)cc2)nc1Cn1nc(C(F)(F)F)cc1C: 2
CCc1cnc(-n2cnc(C(F)(F)F)c2)nc1Cc1cccc(OC(F)(F)F)c1: 4
Cc1cnc(-c2ccc(F)cc2F)nc1Cc1cccc(C(F)(F)F)c1: 6

Below are 2 compounds. Give each one its Plant response rating, Ducksalad.
1. Cc1cnc(-n2ccc(C(F)(F)F)n2)nc1C(=O)c1cccc(C(F)(F)F)c1
2. Cc1cnc(-c2ccc(C(F)(F)F)cc2)nc1C(=O)c1ccc(C(F)(F)F)cc1

Reply text:
1: 6; 2: 0

---

- Tested on: rape (Brassica napus)
- measurement notes: Test B pre-/postemergence
- Type: in vivo
- experimental setup: Rate 62 g/ha, Preemergence
property: Rape plant response rating
Numbers only.

Some solved cases for reference:
Cc1cnc(-c2ccc(C(F)(F)F)cc2)nc1Cn1cnc(C(F)(F)F)n1 [Compound 11]: 9
Cc1cnc(-n2cnc(C(F)(F)F)n2)nc1Cc1cccc(C(F)(F)F)c1 [Compound 43]: 8
Cc1cnc(-c2ccc(C(F)(F)F)cc2)nc1Cn1ccc(C(F)(F)C(F)(F)F)n1 [Compound 14]: 0

Below are 5 compounds. Give each one its Rape plant response rating.
1. CCc1cnc(-n2ccc(C(F)(F)F)n2)nc1Cc1cccc(C(F)(F)F)c1 [Compound 46]
2. COC(c1cccc(C(F)(F)F)c1)c1nc(-c2ccc(C(F)(F)F)cc2)ncc1C (racemic) [Compound 20]
3. Cc1cnc(-c2cccc(C(F)(F)F)c2)nc1Cc1cccc(C#N)c1 [Compound 39]
4. CCc1cnc(-c2ccc(C(F)(F)F)cc2)nc1Cc1cccc(OC(F)(F)F)c1 [Compound 41]
5. Cc1cnc(-c2ccc(C(F)(F)F)cc2)nc1Cc1cccc(OC(F)(F)F)c1 [Compound 15]

Reply text:
9
0
0
3
6

Below are 2 compounds. Give each one its Rape plant response rating.
1. Cc1cnc(-c2ccc(Cl)cc2)nc1Cc1cccc(C(F)(F)F)c1 [Compound 28]
2. Cc1cnc(-c2cccc(C(F)(F)F)c2)nc1Cc1cccc(C(F)(F)F)c1 [Compound 24]

Reply text:
1: 1; 2: 0

---

- Test system: rape (Brassica napus)
- measurement notes: Test B pre-/postemergence
- Assay type: in vivo
- experimental setup: Rate 125 g/ha, Postemergence
- Method: […] At the same time, these crop and weed species were also treated with postemergence applications of test chemicals formulated in the same manner. […] Treated plants and controls were maintained in a greenhouse for twelve to sixteen days, after which all species were compared to controls and visually evaluated. […]
Provide the recorded Plant response rating, Rape for the entries that follow.
Answers are plain numbers.

Some solved cases for reference:
Cc1cnc(-n2ccc(C(F)(F)F)n2)nc1Cc1cccc(C(F)(F)F)c1: 9
Cc1cnc(-c2ccc(C(F)(F)F)cc2)nc1Cc1cccc(OC(F)(F)F)c1: 9
CCc1cnc(-c2ccc(C(F)(F)F)cc2)nc1Cc1cccc(C(F)(F)F)c1: 10

Below are 3 compounds. Give each one its Plant response rating, Rape.
1. COC(c1cccc(C(F)(F)F)c1)c1nc(-c2ccc(C(F)(F)F)cc2)ncc1C (racemic)
2. Cc1cnc(-c2ccc(C(F)(F)F)cc2)nc1Cc1cccc(C(F)(F)F)c1
3. Cc1cnc(-c2ccc(C(F)(F)F)cc2)nc1Cn1nc(C(F)(F)F)cc1C

Reply text:
[4, 9, 8]

---

- Tested on: velvetleaf (Abutilon theophrasti)
- measurement notes: Test B pre-/postemergence
- Assay type: in vivo
- Parameters: key: 0 is no effect; 10 is complete control
- experimental setup: Preemergence, Rate 62 g/ha; scale of 0 to 10
Provide the recorded Plant response rating, Velvetleaf for the entries that follow.
One number for each entry.

Some solved cases for reference:
Cc1cnc(-c2ccc(C(F)(F)F)cc2)nc1Cn1ccc(C#N)n1: 0
CCc1cnc(-n2ccc(C(F)(F)F)n2)nc1C(=O)c1cccc(C#N)c1: 3
O=C(c1cccc(C(F)(F)F)c1)c1ccnc(-c2ccc(F)cc2F)n1: 0
O=C(c1cccc(C(F)(F)F)c1)c1ccnc(-c2ccc(C(F)(F)F)cc2)n1: 0
Cc1cnc(-n2ccc(C(F)(F)C(F)(F)F)n2)nc1C(=O)c1cccc(C(F)(F)F)c1: 2

Below are 2 compounds. Give each one its Plant response rating, Velvetleaf.
1. O=C(c1cccc(C(F)(F)F)c1)c1ccnc(-n2ccc(C(F)(F)F)n2)n1
2. Cc1cnc(-n2cnc(C(F)(F)F)n2)nc1C(=O)c1cccc(OC(F)(F)F)c1

Reply text:
1. 0
2. 4

---

- Test system: duck salad (Heteranthera limosa)
- measurement notes: Test B flood test
- Type: in vivo
- experimental setup: Rate 125 g/ha, Postemergence, flood test
property: Plant response rating, Ducksalad
Answers are plain numbers.

Some solved cases for reference:
Cc1cnc(-c2ccc(C(F)(F)F)cc2)nc1Cn1ccc(C(F)(F)F)n1: 6
Cc1cnc(-c2ccc(C#N)cc2)nc1Cc1cccc(C#N)c1: 0
COC(=O)C(c1cccc(C(F)(F)F)c1)c1nc(-c2ccc(C(F)(F)F)cc2)ncc1C (racemic): 2
Cc1cnc(-c2ccc(OC(F)(F)F)cc2)nc1Cc1cccc(C(F)(F)F)c1: 0
CCc1cnc(-c2ccc(C(F)(F)F)cc2)nc1Cc1cccc(C(F)(F)F)c1: 4
COC(c1cccc(C(F)(F)F)c1)c1nc(-c2ccc(C(F)(F)F)cc2)ncc1C (racemic): 0
Cc1cnc(-c2ccc(F)c(Cl)c2)nc1Cc1cccc(C#N)c1: 5
Cc1cnc(-c2ccccc2F)nc1Cc1cccc(C#N)c1: 0

Next, consider the following molecule.
Inquiry: Which Plant response rating, Ducksalad is reported for this molecule? `CCc1cnc(-c2ccc(C(F)(F)F)cc2)nc1Cc1cccc(OC(F)(F)F)c1`
Reply text: 3

---

- Test system: smallflower flatsedge (Cyperus difformis)
- measurement notes: Test B flood test
- Format: in vivo
- experimental setup: Rate 250 g/ha, Postemergence (flood test species)
- Description: At the same time, these crop and weed species were also treated with postemergence applications of test chemicals formulated in the same manner. Plants ranged in height from 2 to 18 cm (1- to 4-leaf stage) for postemergence treatments. […] Treated plants and controls were maintained in a greenhouse for twelve to sixteen days, after which all species were compared to controls and visually evaluated. […]
property: Plant response rating, S. Flatsedge

Some solved cases for reference:
Cc1cnc(-c2ccc(F)c(Cl)c2)nc1Cc1cccc(C#N)c1: 5
Cc1cnc(-c2ccc(Cl)cc2)nc1Cn1ccc(C(F)(F)F)n1: 7
Cc1cnc(-c2ccc(C(F)(F)F)cc2)nc1C(C)c1cccc(C(F)(F)F)c1 (racemic): 6

Inquiry: Which Plant response rating, S. Flatsedge is reported for this compound? `Cc1cnc(-n2ccc(C(F)(F)C(F)(F)F)n2)nc1C(=O)c1cccc(OC(F)(F)F)c1`
Reply text: 7

---

Provide the recorded Plant response rating, Barnyardgrass for the entries that follow.
- System: barnyardgrass (Echinochloa crus-galli)
- measurement notes: Test C
- Format: in vivo
- experimental setup: PREEMERGENCE, Rate 140 g/ha
Answers are plain numbers.

Some solved cases for reference:
Cc1cnc(-c2ccc(C(F)(F)F)cc2)nc1Cn1ccc(C(F)(F)F)n1: 50
COc1cnc(-c2ccc(C(F)(F)F)cc2)nc1Cc1cccc(C(F)(F)F)c1: 10
Cc1cnc(-c2ccc(C(F)(F)F)cc2)nc1Cc1cccc(OC(F)(F)F)c1: 85

Inquiry: Which Plant response rating, Barnyardgrass is reported for this molecule? `Cc1cnc(-n2ccc(C(F)(F)F)n2)nc1C(=O)c1cccc(OC(F)(F)F)c1`
Reply text: 5
